# Test system: EKVX
# experimental protocol: relative viability (nuclei count vs DMSO), 5 days (fraction); higher = more cells survive
# setup conditions: first compound 0.1581 µM
measurement kind: relative viability
// return a plain number; no unit text

For CC1(C)CCC(c2ccc(Cl)cc2)=C(CN2CCN(c3ccc(C(=O)NS(=O)(=O)c4ccc(N[C@H](CCN5CCOCC5)CSc5ccccc5)c(S(=O)(=O)C(F)(F)F)c4)cc3)CC2)C1 [Navitoclax] + C[C@]1(O)C[C@@H](c2nc(-c3ccc4ccc(-c5ccccc5)nc4c3)c3c(N)nccn32)C1 [Linsitinib] (partner 1 µM) the compound record lists relative viability as 0.953

Record CC1(C)CCC(c2ccc(Cl)cc2)=C(CN2CCN(c3ccc(C(=O)NS(=O)(=O)c4ccc(N[C@H](CCN5CCOCC5)CSc5ccccc5)c(S(=O)(=O)C(F)(F)F)c4)cc3)CC2)C1 [Navitoclax] + CS(=O)(=O)N1CCN(Cc2cc3nc(-c4cccc5[nH]ncc45)nc(N4CCOCC4)c3s2)CC1 [Pictilisib] (partner 1 µM) , field relative viability: 0.41

Sample CC1(C)CCC(c2ccc(Cl)cc2)=C(CN2CCN(c3ccc(C(=O)NS(=O)(=O)c4ccc(N[C@H](CCN5CCOCC5)CSc5ccccc5)c(S(=O)(=O)C(F)(F)F)c4)cc3)CC2)C1 [Navitoclax] + Cc1nc(NC(=O)N2CCC[C@H]2C(N)=O)sc1-c1ccnc(C(C)(C)C(F)(F)F)c1 [Alpelisib] (partner 2 µM) ; relative viability observed: 0.928

Value source: the supplement of paper PMC10307832
